# TESTED_ON: T1, human IL-23 (IL-23-His-Biotin) (human, UniProt Q9NPF7 20-189; P29460 23-328, biotin label, site not stated)
# T1 construct: Akesobio lot 20161209; His-tagged and biotinylated
# T1 sequence (looked up) 1: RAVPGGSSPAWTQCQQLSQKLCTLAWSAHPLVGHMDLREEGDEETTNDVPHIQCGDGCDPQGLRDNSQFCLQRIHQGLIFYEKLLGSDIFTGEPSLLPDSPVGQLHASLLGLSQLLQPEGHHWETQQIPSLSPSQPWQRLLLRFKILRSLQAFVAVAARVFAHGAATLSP
# T1 sequence (looked up) 2: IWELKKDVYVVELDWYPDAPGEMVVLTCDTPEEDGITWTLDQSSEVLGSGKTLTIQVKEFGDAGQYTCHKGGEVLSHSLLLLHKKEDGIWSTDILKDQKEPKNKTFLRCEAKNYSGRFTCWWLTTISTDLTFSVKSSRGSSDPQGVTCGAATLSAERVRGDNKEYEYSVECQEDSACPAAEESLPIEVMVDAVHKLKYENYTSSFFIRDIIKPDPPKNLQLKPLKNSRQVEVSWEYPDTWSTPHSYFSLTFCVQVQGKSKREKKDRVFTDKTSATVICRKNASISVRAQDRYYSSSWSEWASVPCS
# MEASUREMENT_DESCRIPTION: FACS competition, IL-23-His-Biotin 2 µg/mL on 293T-IL-12Rβ1&IL-23R cells
EXPERIMENTAL_READOUT: EC50 (µg/mL)
Give bare numbers, in µg/mL.

Solved cases below.
BINDER	OUTPUT_UNIT	EC50
H5L10 (antibody, human IgG1, kappa, V domains shown, human IgG1 / kappa constant regions; also called humanized antibody H5L10) VH: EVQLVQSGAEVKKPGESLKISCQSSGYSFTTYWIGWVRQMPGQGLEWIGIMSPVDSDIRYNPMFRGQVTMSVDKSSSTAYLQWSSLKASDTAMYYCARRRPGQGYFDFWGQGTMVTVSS VL: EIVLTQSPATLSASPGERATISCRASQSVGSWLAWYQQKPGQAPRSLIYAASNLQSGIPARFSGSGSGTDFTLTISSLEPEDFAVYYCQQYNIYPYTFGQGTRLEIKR	µg/mL	0.7
ustekinumab (antibody, V domains shown) VH: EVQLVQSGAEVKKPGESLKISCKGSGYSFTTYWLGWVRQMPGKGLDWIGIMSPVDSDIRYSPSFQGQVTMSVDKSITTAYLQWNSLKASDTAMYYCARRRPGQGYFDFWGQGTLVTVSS VL: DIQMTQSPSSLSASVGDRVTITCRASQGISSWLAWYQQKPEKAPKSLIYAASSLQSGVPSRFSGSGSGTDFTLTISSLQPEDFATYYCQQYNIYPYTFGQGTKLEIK	µg/mL	1.16
H5L12 (antibody, human IgG1, kappa, V domains shown, human IgG1 / kappa constant regions; also called humanized antibody H5L12) VH: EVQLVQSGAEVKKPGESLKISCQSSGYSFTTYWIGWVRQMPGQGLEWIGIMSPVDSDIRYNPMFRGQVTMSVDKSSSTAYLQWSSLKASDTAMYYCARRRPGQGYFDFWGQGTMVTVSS VL: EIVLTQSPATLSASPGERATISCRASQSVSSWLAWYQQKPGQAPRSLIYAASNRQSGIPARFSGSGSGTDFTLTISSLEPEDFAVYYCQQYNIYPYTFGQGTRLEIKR	µg/mL	0.775

Continue with the next binder.
[in] Which EC50 value is on record for H5L14 (antibody, human IgG1, kappa, V domains shown, human IgG1 / kappa constant regions; also called humanized antibody H5L14) VH: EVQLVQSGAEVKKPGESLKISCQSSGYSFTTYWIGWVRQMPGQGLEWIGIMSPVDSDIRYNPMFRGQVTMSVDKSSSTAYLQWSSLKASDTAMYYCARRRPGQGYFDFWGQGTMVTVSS VL: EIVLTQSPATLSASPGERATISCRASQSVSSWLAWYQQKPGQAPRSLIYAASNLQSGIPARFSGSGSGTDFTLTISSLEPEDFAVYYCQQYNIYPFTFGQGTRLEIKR ?
[out] 0.881

These measurements were taken from patent US20220298235A1.
